Recorded values, source ChEMBL document CHEMBL5614392.

# assayed-system: UniProt:Q08499
# protocol-details: Inhibition of human recombinant PDE4D using radioactively labelled cAMP and cAMP as substrate incubated for 1 hrs by luminescence based analysis
quantity-kind: IC50

Query: Please look up its IC50: "COc1ccc(-c2cccc(C(C)=O)c2)n2nc(C3(C(=O)NC4CCCC4)CC3)nc12"
Result: < 500 nM

###

# Tested on: HT-22
# protocol-details: Cytotoxicity against mouse HT-22 cells at 10 to 30 uM
# Assay type: toxicity, cell-based
# test-settings: ht-22, 30 µM, dose 10-30 µM
quantity-kind: Activity

> print(dat)
                         chemical.structure  value.reported
1         COc1ccc(-c2ccncc2)c2cn(C3CC3)nc12       Non-Toxic
2     FC(F)Oc1ccc(-c2ccncc2)c2cn(C3CC3)nc12       Non-Toxic
3  CC(=O)c1cccc(-c2ccc(OC(F)F)c3nn(C4CC4)cc23)c1           Toxic
4  COc1cc(-c2ccc(OC(F)F)c3nn(C4CC4)cc23)cc(OC)c1OC       Non-Toxic

###

# assayed-system: UniProt:Q08499
# protocol-details: Inhibition of PDE4D (unknown origin) using FAM-cyclic-3'5'-AMP as substrate incubated for 1 hrs by fluorescence polarization assay
quantity-kind: IC50 (nM)
I only need the number, in nM, no unit after it.

Query: Request - read-out IC50 | tested on UniProt:Q08499 | compound "COc1cc(-c2ccc(OC(F)F)c3nn(C4CC4)cc23)cc(OC)c1OC"
Result: 65.7

###

# assayed-system: 3',5'-cyclic-AMP phosphodiesterase 4B (Homo sapiens)
# Sequence (Q07343 whole entry, the tested form may be a part): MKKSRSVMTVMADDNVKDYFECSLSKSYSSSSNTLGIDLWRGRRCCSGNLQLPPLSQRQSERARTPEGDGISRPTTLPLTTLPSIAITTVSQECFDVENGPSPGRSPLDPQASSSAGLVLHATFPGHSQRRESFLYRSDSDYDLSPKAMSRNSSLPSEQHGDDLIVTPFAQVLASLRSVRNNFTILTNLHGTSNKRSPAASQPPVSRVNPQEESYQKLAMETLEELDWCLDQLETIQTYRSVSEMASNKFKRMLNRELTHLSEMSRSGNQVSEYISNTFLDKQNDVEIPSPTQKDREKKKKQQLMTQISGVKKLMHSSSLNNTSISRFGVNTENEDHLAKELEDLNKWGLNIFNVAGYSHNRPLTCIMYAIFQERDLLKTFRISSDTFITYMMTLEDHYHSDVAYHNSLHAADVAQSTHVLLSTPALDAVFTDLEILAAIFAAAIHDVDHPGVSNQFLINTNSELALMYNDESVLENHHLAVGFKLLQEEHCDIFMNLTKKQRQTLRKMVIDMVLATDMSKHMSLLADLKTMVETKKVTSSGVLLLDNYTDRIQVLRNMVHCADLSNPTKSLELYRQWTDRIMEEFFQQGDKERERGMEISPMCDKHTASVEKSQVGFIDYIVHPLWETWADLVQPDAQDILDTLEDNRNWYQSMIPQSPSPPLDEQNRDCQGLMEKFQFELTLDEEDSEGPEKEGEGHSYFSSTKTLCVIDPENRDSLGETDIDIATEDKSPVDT
# protocol-details: Inhibition of recombinant human PDE4B catalytic domain extracted from baculovirus infected Sf9 cells using […] preincubated for 20 mins followed by 2 mins incubation at 65 degreeC and measured 10 mins after substrate addition by scintillation counter
quantity-kind: IC50

Query: Item under review: "COc1ccc(-c2ccc3[nH]c(=O)ccc3c2)n2cc(C(F)(F)F)nc12" . Reported IC50?
Result: < 100 nM

###

# assayed-system: 3',5'-cyclic-AMP phosphodiesterase 4D (Homo sapiens)
# Sequence (Q08499 whole entry): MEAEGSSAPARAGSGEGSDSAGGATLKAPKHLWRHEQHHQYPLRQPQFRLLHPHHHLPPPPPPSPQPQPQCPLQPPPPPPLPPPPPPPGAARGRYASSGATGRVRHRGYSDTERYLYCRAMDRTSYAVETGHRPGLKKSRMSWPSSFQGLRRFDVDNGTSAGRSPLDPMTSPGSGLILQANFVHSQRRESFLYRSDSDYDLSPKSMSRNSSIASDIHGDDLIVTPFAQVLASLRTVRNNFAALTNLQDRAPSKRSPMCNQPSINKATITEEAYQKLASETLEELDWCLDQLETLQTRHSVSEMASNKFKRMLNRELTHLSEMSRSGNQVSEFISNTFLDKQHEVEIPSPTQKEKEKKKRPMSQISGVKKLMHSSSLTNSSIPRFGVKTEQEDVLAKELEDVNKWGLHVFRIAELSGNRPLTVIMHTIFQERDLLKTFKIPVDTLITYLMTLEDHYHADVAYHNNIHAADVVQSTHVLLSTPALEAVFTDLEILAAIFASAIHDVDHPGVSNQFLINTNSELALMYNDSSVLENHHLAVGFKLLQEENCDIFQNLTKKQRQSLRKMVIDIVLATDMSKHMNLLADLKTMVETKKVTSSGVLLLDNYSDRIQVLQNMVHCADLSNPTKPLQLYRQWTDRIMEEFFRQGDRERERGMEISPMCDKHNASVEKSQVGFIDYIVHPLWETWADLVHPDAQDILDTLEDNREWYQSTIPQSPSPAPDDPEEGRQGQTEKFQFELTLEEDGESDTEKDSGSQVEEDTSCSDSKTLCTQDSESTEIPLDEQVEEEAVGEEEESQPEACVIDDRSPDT
# protocol-details: Inhibition of PDE4D7 (unknown origin) using FAM-cyclic-3'5'-AMP as substrate at 100 nM incubated for 1 hrs by fluorescence polarization assay relative to control
Given measured inhibition, output Fulfilled if it is greater than or equal to 10% and Not fulfilled if not.

Query: Is reported inhibition greater than or equal to 10% here: "CC(C)CNC(=O)c1cc(-c2ccc(OC(F)F)c3nn(C4CC4)cc23)ccn1"
Result: Fulfilled

Query: Answer whether inhibition of "COc1ccc(-c2ccncc2)c2cn(C3CC3)nc12" is greater than or equal to 10%.
Result: Fulfilled

Query: Is it the case that "COc1ccc(-c2cccc(C(C)=O)c2)c2cn(C3CC3)nc12" has inhibition reaching or exceeding 10%?
Result: Fulfilled

Query: Check the entry "NC(=O)c1cccnc1Oc1cc(-c2ccc(OC(F)F)c3nn(C4CC4)cc23)cc2c1OCO2" : does inhibition equal or exceed 10%?
Result: Fulfilled

Query: Hi team, for "COc1ccc(-c2cccc(C(C)=O)c2)c2cn(C3(C(=O)NC4CCCC4)CC3)nc12" , is the recorded inhibition at or above 10%?
Result: Not fulfilled

Query: Test whether the compound "N#Cc1cccnc1Oc1cc(-c2ccc(OC(F)F)c3nn(C4CC4)cc23)cc2c1OCO2" records inhibition of 10% or higher.
Result: Not fulfilled

Query: Kindly determine if inhibition recorded for "FC(F)Oc1ccc(-c2ccncc2Cl)c2cn(C3CC3)nc12" is above or exactly 10%.
Result: Fulfilled

Query: inhibition >= 10% for "COc1ccc(N2CC(Oc3ccccc3)C2)c2cn(C3CC3)nc12" ?
Result: Not fulfilled

Query: Evaluate "COc1ccc(-c2ccc(OC)c3nn(C4CC4)cc23)cc1OC" : inhibition at minimum 10%?
Result: Not fulfilled
